B1: RIPK4 (parent)
chain: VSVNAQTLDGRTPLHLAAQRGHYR

variants of: B1; experiment: protein stability index of a GFP-peptide fusion (GPS, HEK-293T) (PSI 1-6); higher = more stable; conditions: c terminus: a fixed tail appended;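 further: lentivirally expressed fusions sorted by FACS into six bins by GFP to DsRed ratio, PSI derived from sequencing read proportions per bin multiplied by bin number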
// FALSE strictly below 3 in protein stability index; TRUE otherwise

Here's what some known entries look like.
INSERT INTO results (variant_descriptor, qualitative_label) VALUES
  ('G10E', 'TRUE'),
  ('A18W', 'FALSE'),
  ('L14C', 'FALSE'),
  ('R20D', 'TRUE'),
  ('H15M', 'FALSE'),
  ('T7A', 'TRUE'),
  ('V3A', 'TRUE'),
  ('H22L', 'FALSE'),
  ('A5P', 'TRUE'),
  ('A17Y', 'FALSE');

Could you now look at the following variant, please?
protein stability index >= 3 for "A18Y" ?
FALSE
